Collected OD 450 nm values appear next to each entry.
Target: peroxidase-anti-peroxidase (PAP) immune complexes (UniProt P00433)
Sequence (P00433 31-338, one chain of several): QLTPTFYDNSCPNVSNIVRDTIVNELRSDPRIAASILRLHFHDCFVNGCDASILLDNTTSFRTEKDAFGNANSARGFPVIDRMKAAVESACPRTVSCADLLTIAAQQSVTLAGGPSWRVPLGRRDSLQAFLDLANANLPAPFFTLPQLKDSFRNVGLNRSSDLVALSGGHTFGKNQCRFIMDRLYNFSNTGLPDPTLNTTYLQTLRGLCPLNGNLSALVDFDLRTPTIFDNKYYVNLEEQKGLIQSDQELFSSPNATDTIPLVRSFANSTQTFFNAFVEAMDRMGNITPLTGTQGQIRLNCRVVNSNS
Assay: reverse ELISA: PAP pre-incubated with peptide; competitor: immobilised FcγIII
Positions of bridges follow the written chain, without caps; N, C: chain ends. No end group written: not given here.
measurement-type: OD 450 nm (OD)

INSERT INTO assay_data (binder, measurement_type, result_value) VALUES
  ('DCAWHLGELAACT (cyclized by a disulfide bond between the two cysteine residues) [… (SEQ ID NO:42)]', 'OD 450 nm', 1.34),
  ('DCAAHLGELAACT (cyclized by a disulfide bond between the two cysteine residues) [… (SEQ ID NO:40)]', 'OD 450 nm', 2.41),
  ('DCARHLGELVWCT (disulfide 2-12 (inferred)) [… (SEQ ID NO:4)]', 'OD 450 nm', 2.53),
  ('RCARHLGELVWCT (disulfide 2-12 (inferred)) [… (SEQ ID NO:5)]', 'OD 450 nm', 3.5),
  ('PCARHLGELVWCT (disulfide 2-12 (inferred)) [… (SEQ ID NO:41)]', 'OD 450 nm', 1.6);

These data points were gathered from patent US20070225231A1.
